tested-on: T1, monomeric human c-fms (residues 1-512)-pHis (human, UniProt P07333 20-512)
T1 construct: Construct stated as residues 1-512; signal stated as amino acids 1-19 and left out; also called human c-fms (1-512).pHIS; monomeric c-fms
method-notes: Biacore, low resolution; hybridoma mAb captured on anti-human IgG, monomeric c-fms-pHis analyte at 125 nM
Protocol: Anti-human IgG was immobilized on all four flow cells of a sensor chip using amine coupling. Crude hybridoma samples were diluted into halves and captured on the anti-IgG surface. […] Sequence lineage analyses were also performed on the 29 hybridomas (see, FIG. 2).
Overview of recorded Kd for various binders
Answer with a number only, understood to be in nM.

These solved cases illustrate the format of a correct answer.
Which Kd value belongs to anti-c-fms hybridoma antibody 1.134 (antibody, IgG1, V domains shown, Hybridoma IgG1 (cohort 1); also called 1.134.1) VH: QVQLVESGGGVVQPGRSLRLSCAASGFTFSSYGMHWVRQAPGKGLEWVAVIWYDGSNKYYADSVKGRFTISRDNSKNTLYLQMNSLRAEDTAVYYCASSSWSYYGMDVWGQGTTVTVSS VL: DIQMTQSPSSLSASVGDRVTITCQASQDINNYLNWYQQKPGKAPKLLIYDASNLEIGVPSRFSGSGSGTDFIFTISSLQPEDIATYYCQQYDNFPFTFGGGTKVEIK ? 4.6

Which Kd value belongs to anti-c-fms hybridoma antibody 1.64 (antibody, IgG1, V domains shown, Hybridoma IgG1 (cohort 1); also called 1.64.1; 1.64.2) VH: EVQLVESGGGLVQPGGSLRLSCAASGFTFSSYDMHWVRQATGKGLEWVSGIGTAGDTYYPGSVKGRFNISRENAKNSLYLQMNSLRAGDTAVYYCAREGSWYGFDYWGQGTLVTVSS VL: EIVLTQSPGTLSLSPGERATLSCRASQSVSSGYLAYLAWYQQKPGQAPRLLIYGASSTATGIPDRFSGSGSGTDFTLTISRLEPEDFAVYYCQQYGSSPITFGQGTRLEIK ? 2.5

Which Kd value belongs to anti-c-fms hybridoma antibody 2.508 (antibody, IgG2, V domains shown, Hybridoma IgG2 (cohort 2); also called 2.508.1; 2.508.2) VH: QVQLVQSGAEVKKPGASVKVSCKVSGYTLTELSMHWVRQAPGKGLEWMGGFDPEDGETIYAQKFQGRVTMTEDTSTDTAYMELSSLRSEDTAVYYCATAGLEIRWFDPWGQGTLVTVSS VL: DIVMTQSPLSLPVTPGEPASISCRSSQSLLHSNGYNYLDWYLQKPGQSPQFLIYLGSIRASGVPDRFSGSGSGTDFALTISRVEAEDVGVYYCMQALQTPRTFGQGTKVEIK ? 0.7

Which Kd value belongs to anti-c-fms hybridoma antibody 2.475 (antibody, IgG2, V domains shown, Hybridoma IgG2 (cohort 2); also called 2.475.2) VH: QVQLVESGGGVVQPGRSLRLSCAASGFTFISYGMHWVRQAPGKGLEWVAVIWYDGSNKYYADSVKGRFTISRDNSKNTLYLQMNSLRAEDTAVYYCADSSGDYYGMDVWGQGTTVTVSS VL: DIQMIQSPSSLSASVGDRVTITCQASHDISNYLNWYQQKPGKAPKFLISDASNLETGVPSRFSGSGSGTDFTFTISSLQPEDIATYYCQQYDNLPLTFGGGTKVEIK ? 4.7

Would you kindly look at the next entry?
Which Kd value belongs to anti-c-fms hybridoma antibody 2.360 (antibody, IgG2, V domains shown, Hybridoma IgG2 (cohort 2)) VH: QVQLVQSGAEVKKPGASVKVSCKVSGYTLTELSMHWVRQAPGKGLEWMGGFDPEDGETIYAQKFQGRVTMTEDTSTDTVYMELSSLRSEDTAVYYCATGVMITFGGVIVGHSYYGMDVWGQGTTVTVSS VL: DIQMTQSPSSLSASVGDRVTITCRASQGINNYLAWYQQKPGKVPQLLIYVASTLQSGVPSRFSGSGSGTDFTLTISSLQPEDVATYYCQKYNSGPFTFGPGTKVDIK ? 5.6
